Ref: the supplement of paper PMC10883282

I'd be grateful if you could share measured standardised AUC for these entries.
- Test system: G401
- experiment: standardised AUC of viability dose-response curve (72 h) (fraction (0-1)); higher = less growth inhibition (more resistant)
Numbers only.

Field: example entries. Status: answers known.
C[C@@H]1COCCN1c1cc(-c2ccnn2C)c2ccnc(-c3ccn[nH]3)c2n1 = 0.819
Cc1nc(-c2cn3c(n2)-c2ccc(-c4cnn(C(C)(C)C(N)=O)c4)cc2OCC3)n(C(C)C)n1 [TASELISIB] = 0.744
CCCS(=O)(=O)Nc1ccc(F)c(C(=O)c2c[nH]c3ncc(-c4ccc(Cl)cc4)cc23)c1F [VEMURAFENIB] = 0.992
CC1(C)CNc2cc(NC(=O)c3cccnc3NCc3ccncc3)ccc21 [MOTESANIB] = 0.957
CC[C@H](Nc1ncnc2[nH]cnc12)c1nc2cccc(F)c2c(=O)n1-c1ccccc1 [IDELALISIB] = 0.931

Please look at the items below and tell me standardised AUC for each one, in order.
1. C[C@@H](c1ccc2nccn2c1)n1nnc2ncc(-c3cnn(C)c3)nc21 [VOLITINIB]
2. COc1cccc2c1C(=O)c1c(O)c3c(c(O)c1C2=O)C[C@@](O)(C(=O)CO)C[C@@H]3O[C@H]1C[C@H](N)[C@H](O)[C@H](C)O1 [DOXORUBICIN]

# output
1: 0.992; 2: 0.577
